Test system: Tyrosinase
Reported conditions: 0.05 mmol/L; after 5 min reaction
// values below are reported Inhibitory rate on tyrosinase

Worked set:
{"Residues": "EARHSGYLPYQMF [BommoOKA_type4]", "Value": "17.02±0.11%"}
{"Residues": "NFDEIDRSSMPFPYAI [BommoOKA_type2]", "Value": "6.12±0.09%"}
{"Residues": "NFDEIDRSSLNTFV [BommoOKA_type1]", "Value": "6.88±0.19%"}

Lab note: next sequence to report on.
Supply recorded Inhibitory rate on tyrosinase for YDYISPYG [BommoOKA_type5] here.
3.25±1.57%
